Test system: LXRa:RXRa (NR concentration 270 nM, RXRa partner concentration 90 nM)
Test: PBM binding z-score (relative to random genomic background probes); higher = stronger binding; sequences stand for … in GC…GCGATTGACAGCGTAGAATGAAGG
Label scheme for PBM binding z-score: lower than 1 is false, 1 and above is true.

{"sequence.string": "TATACAGGGTCAAATGCCAGAGTACGAATGTCGA", "class": "true"}
{"sequence.string": "ATCTCTAGGTAACCAAATTCAGTGAATGCCGAAC", "class": "false"}
{"sequence.string": "TCTTGTAGATCAATAGAGGTTAAGATAGTGCGCT", "class": "true"}
{"sequence.string": "CCGACTGGGGCAAAGGCTACCATACTCAGTACGA", "class": "false"}
{"sequence.string": "AGAATGAGGTTACCAAAGATAAGGGAAACGCTTG", "class": "true"}
{"sequence.string": "ACTAGCAGGCCACGGGTCACTCAAGATTAGTCCG", "class": "true"}
{"sequence.string": "AGAATGTGGTTACCAAAGATCAGGGAAACGCTTG", "class": "false"}
{"sequence.string": "TCATATAGGTAAATGCTAGGGGAAAGTCCGATCT", "class": "false"}
{"sequence.string": "GATATTAGTTGAAAGGGCAACCGAATGATTCTCG", "class": "true"}
{"sequence.string": "TATCGGAGGACACGAAAGGTCAGAGCTCGACATC", "class": "true"}
{"sequence.string": "TCCAGTAGGTTACCAATGGGGCATTCAGCTTTCT", "class": "true"}

---

Tested on: PPARg:RXRa IVT, anti-PPARg (NR concentration 270 nM, RXRa partner concentration 90 nM)
Assay: PBM binding z-score (relative to random genomic background probes); higher = stronger binding; sequences stand for … in GC…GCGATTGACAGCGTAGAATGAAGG
Output: class label from PBM binding z-score. Mapping: bottom bin = under 0.9, middle bin = from 0.9 up to 4, top bin = 4 and over

{"sequence.string": "CGTCCAAGGTCAAAGGTCAGTGAGGAGATGACGG", "target.under.test": "PPARg:RXRa IVT, anti-PPARg (NR concentration 270 nM, RXRa partner concentration 90 nM)", "class": "top bin"}
{"sequence.string": "AGAACGAGAGCAATGAGTTGATAGCACGGGTGGC", "target.under.test": "PPARg:RXRa IVT, anti-PPARg (NR concentration 270 nM, RXRa partner concentration 90 nM)", "class": "bottom bin"}
{"sequence.string": "ACTATTAGTTGTCTTAGGGCAACCGATACGACGC", "target.under.test": "PPARg:RXRa IVT, anti-PPARg (NR concentration 270 nM, RXRa partner concentration 90 nM)", "class": "bottom bin"}
{"sequence.string": "TCGAGTAGGTTATTCGGGGCATTCAGCCAACATA", "target.under.test": "PPARg:RXRa IVT, anti-PPARg (NR concentration 270 nM, RXRa partner concentration 90 nM)", "class": "middle bin"}
{"sequence.string": "AGAATGAGGTTACCAAAGATCCGGGAAACGCTTG", "target.under.test": "PPARg:RXRa IVT, anti-PPARg (NR concentration 270 nM, RXRa partner concentration 90 nM)", "class": "middle bin"}
{"sequence.string": "GCATATAGGTAATCCAAGGTGAAAGTCCGATTGT", "target.under.test": "PPARg:RXRa IVT, anti-PPARg (NR concentration 270 nM, RXRa partner concentration 90 nM)", "class": "middle bin"}
{"sequence.string": "CTTGAAAGGTCGGTTGAGGTGAGTATACGGATAA", "target.under.test": "PPARg:RXRa IVT, anti-PPARg (NR concentration 270 nM, RXRa partner concentration 90 nM)", "class": "middle bin"}
{"sequence.string": "ATCGAAAGTTCGAGGTGAGTATAGAGAAAGGGAA", "target.under.test": "PPARg:RXRa IVT, anti-PPARg (NR concentration 270 nM, RXRa partner concentration 90 nM)", "class": "bottom bin"}
{"sequence.string": "CCTGCTAGGTCATGGTCACCTAATCTACAGTATG", "target.under.test": "PPARg:RXRa IVT, anti-PPARg (NR concentration 270 nM, RXRa partner concentration 90 nM)", "class": "top bin"}
{"sequence.string": "CCCGACAGGTGAAAGGTAACTCAGTCTGGTACGC", "target.under.test": "PPARg:RXRa IVT, anti-PPARg (NR concentration 270 nM, RXRa partner concentration 90 nM)", "class": "middle bin"}

Reference for the values: the supplement of paper PMC6555819
